experiment: Pharmacokinetic assay in Balb/c mice (plasma and brain tissue); assay type: in vivo; conditions: mouse, po; plasma, 5 mg/kg p.o., male Balb/c mice; read-out: Mean residence time MRT
Each entry falls into one class according to its MRT; the ranges are bottom bin (below 3 h), middle bin (3 h to below 4 h), top bin (4 h or more)

Exercise: The entry to classify is `C[C@@]1(O)CC[C@H]2[C@H](CC[C@@H]3[C@@H]2CC[C@@]2(C)[C@H]3[C@@H]3C[C@@H]3[C@@H]2C(=O)Cn2ccc(C#N)n2)C1` ; which class holds it?
Key: bottom bin

Exercise: Which category fits this record: `C[C@@H]1C[C@H](C(=O)Cn2nc(C#N)cc2C#N)[C@@]2(C)CC[C@H]3[C@@H](CC[C@@H]4C[C@](C)(O)CC[C@@H]43)[C@H]12`
Key: top bin

Exercise: Could you place `C[C@@H]1C[C@H](C(=O)Cn2cc(C#N)cn2)[C@@]2(C)CC[C@H]3[C@@H](CC[C@@H]4C[C@](C)(O)CC[C@@H]43)[C@H]12` in its proper category? Many thanks.
Key: middle bin

Exercise: Quick check: band for `CC[C@@H]1C[C@H](C(=O)Cn2nccn2)[C@@]2(C)CC[C@H]3[C@@H](CC[C@@H]4C[C@](C)(O)CC[C@@H]43)[C@H]12`
Key: bottom bin

Exercise: Which class is correct for the following compound? `C[C@@]1(O)CC[C@H]2[C@H](CC[C@@H]3[C@@H]2CC[C@@]2(C)[C@H]3[C@@H]3C[C@@H]3[C@@H]2C(=O)Cn2cc(C(F)(F)F)cn2)C1`
Key: top bin

Exercise: Please classify: `C[C@@]1(O)CC[C@H]2[C@H](CC[C@@H]3[C@@H]2CC[C@@]2(C)[C@H]3[C@@H]3C[C@@H]3[C@@H]2C(=O)Cn2cc(C#N)cn2)C1`
Key: bottom bin

Exercise: Category of `CC[C@@H]1C[C@H](C(=O)Cn2ccc(C#N)n2)[C@@]2(C)CC[C@H]3[C@@H](CC[C@@H]4C[C@](C)(O)CC[C@@H]43)[C@H]12` , please.
Key: top bin

Exercise: Kindly identify the class of `C[C@@]1(O)CC[C@H]2[C@H](CC[C@@H]3[C@@H]2CC[C@@]2(C)[C@H]3[C@H](C3CC3)C[C@@H]2C(=O)Cn2ccc(C#N)n2)C1` .
Key: middle bin

Exercise: Class label required: `CC[C@@H]1C[C@H](C(=O)Cn2ccc(C(F)(F)F)n2)[C@@]2(C)CC[C@H]3[C@@H](CC[C@@H]4C[C@](C)(O)CC[C@@H]43)[C@H]12`
Key: bottom bin

###

target: GABA-A receptor; assay: 35S-TBPS binding assay (GABAA receptor binding ability test); conditions: rat cerebral cortex cell membrane, 5 μM GABA, 2 nM 35S-TBPS; read-out: 35S-TBPS bindng test: IC50 on inhibiting the TBPS binding activity
Rule: IC50 below 0.01 µM gives condition met, anything at or above gives condition not met.

Exercise: Input `C[C@@]1(O)CC[C@H]2[C@H](CC[C@@H]3[C@@H]2CC[C@@]2(C)[C@H]3[C@H](C3CC3)C[C@@H]2C(=O)Cn2ccnn2)C1` ; condition: IC50 strictly below 0.01 µM. Does it hold?
Key: condition not met

Exercise: Below 0.01 µM on IC50? Entry Cc1nn(CC(=O)[C@H]2[C@H]3C[C@H]3[C@H]3[C@@H]4CC[C@@H]5C[C@](C)(O)CC[C@@H]5[C@H]4CC[C@@]32C)cc1C#N [Example 37A]
Key: condition not met

Exercise: For this molecule, is IC50 lower than 0.01 µM? `C[C@@H]1C[C@H](C(=O)COc2ccc(F)cc2F)[C@@]2(C)CC[C@H]3[C@@H](CC[C@@H]4C[C@](C)(O)CC[C@@H]43)[C@H]12`
Key: condition met

Exercise: For `C[C@@]1(O)CC[C@H]2[C@H](CC[C@@H]3[C@@H]2CC[C@@]2(C)[C@H]3[C@@H]3C[C@@H]3[C@@H]2C(=O)Cn2ccc(C#N)n2)C1` , is the recorded IC50 below the cut-off of 0.01 µM?
Key: condition not met

Exercise: Find out if reported IC50 for `C[C@@H]1C[C@H](C(=O)Cn2cc(C#N)c(Cl)n2)[C@@]2(C)CC[C@H]3[C@@H](CC[C@@H]4C[C@](C)(O)CC[C@@H]43)[C@H]12` is less than 0.01 µM
Key: condition met

Exercise: Determine if `C[C@@]1(O)CC[C@H]2[C@H](CC[C@@H]3[C@@H]2CC[C@@]2(C)[C@H]3[C@@H]3C[C@@H]3[C@@H]2C(=O)Cn2nccn2)C1` shows IC50 strictly lower than 0.01 µM.
Key: condition not met

Each recorded value in this set is attributed to patent US12139508B2.
